Recorded values, source ChEMBL document CHEMBL1126223.

Molecular target: Adenosine deaminase (Bos taurus, UniProt P56658)
Sequence (P56658 whole entry): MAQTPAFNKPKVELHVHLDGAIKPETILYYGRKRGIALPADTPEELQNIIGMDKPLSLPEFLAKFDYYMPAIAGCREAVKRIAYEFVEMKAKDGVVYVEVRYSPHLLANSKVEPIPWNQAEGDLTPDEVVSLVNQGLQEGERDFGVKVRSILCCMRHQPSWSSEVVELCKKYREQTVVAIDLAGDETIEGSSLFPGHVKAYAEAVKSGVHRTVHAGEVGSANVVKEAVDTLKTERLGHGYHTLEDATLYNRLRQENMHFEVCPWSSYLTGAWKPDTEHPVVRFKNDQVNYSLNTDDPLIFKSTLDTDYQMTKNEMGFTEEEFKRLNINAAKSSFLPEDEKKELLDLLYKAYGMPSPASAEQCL
Test: Binding affinity (Ki) at calf intestinal Adenosine deaminase
pKi: −log10 of the molar value.
pKi: recorded values
Readout: pKi

# Compound, Measurement
rows = [
    ("CCCCCC[C@H]([C@@H](O)CO)n1cnc2c(N)ncnc21", 7.25),
    ("CCCCCC[C@H]([C@H](C)O)n1cnc2c(N)ncnc21 [(+)-EHNA]", 8.70),
    ("CCCCCC[C@H](CO)n1cnc2c(N)ncnc21", 7.33),
    ("CCCCCC[C@H](CF)n1cnc2c(N)ncnc21", 5.80),
    ("CCCCCC[C@H]([C@@H]1CO1)n1cnc2c(N)ncnc21", 6.05),
]

###

Biological target: UniProt P56658
Assay: Binding affinity (Ki) at calf intestinal adenosine deaminase.

# Compound Smiles, Ki
measured = [
    ("CCCCCC[C@@H]1[C@@H](O)C[n+]2cnc(N)c3ncn1c32", "1000 nM"),
    ("CCCCCC[C@H](CBr)n1cnc2c(N)ncnc21", "600 nM"),
    ("CCCCCC[C@H](CCl)n1cnc2c(N)ncnc21", "320 nM"),
    ("CCCCCC[C@H](CN=[N+]=[N-])n1cnc2c(N)ncnc21", "1300 nM"),
    ("CCCCCC[C@@H]([C@@H](C)O)n1cnc2c(N)ncnc21", "4 nM"),
]
